- assayed_target: T1, IGF-II (amino acids 1-67) (human, UniProt P01344 25-91)
- T1 construct: mature; also called IGF-II (67aa); IGF2
- T1 sequence (P01344 25-91): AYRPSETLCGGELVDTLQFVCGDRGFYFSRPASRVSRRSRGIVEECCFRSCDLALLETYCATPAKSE
- assay_explanation: SPR (Biacore T100): IgG captured on Protein G', ligand bound, then BP injected; competitor BP4
Listing: competition score (0 = does not compete significantly, 5 = competes strongly) of selected binders
quantity_kind: competition score (0 = does not compete significantly, 5 = competes strongly)

| binder | observed_result |
| --- | --- |
| M0064-F02 IgG (antibody, V domains shown, IgG form of the Fab; also called non-germlined M0064-F02) VH: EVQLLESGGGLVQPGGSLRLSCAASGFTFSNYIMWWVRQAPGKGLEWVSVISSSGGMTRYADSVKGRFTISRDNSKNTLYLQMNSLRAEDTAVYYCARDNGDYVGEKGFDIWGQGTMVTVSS VL: DIQMTQSPSSLSASVGDRVTITCRASQSISNYLNWYQQKPGKAPKLLIYTASTLQSGVPSRFSGSASGTDFTLTINSLQPEDFATYSCQQSYNSPWTFGQGTKVEIK | 4 score 0-5 |
| M0064-E04 IgG (antibody, V domains shown, IgG form of the Fab; also called non-germlined M0064-E04) VH: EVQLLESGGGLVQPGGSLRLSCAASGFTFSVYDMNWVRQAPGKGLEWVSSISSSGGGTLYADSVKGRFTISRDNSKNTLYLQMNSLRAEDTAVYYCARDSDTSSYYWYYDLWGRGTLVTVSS VL: DIQMTQSPSSLSASVGDRVTITCQASHDISNYLNWYQQKPGKAPKLLIYAASRLQSGVPSRFSGGGSGTDFSLTISSLQAEDFATYYCQQSYSFPRTFGQGTNLEIK | 5 score 0-5 |
| M0072-G06 IgG (antibody, V domains shown) VH: EVQLLESGGGLVQPGGSLRLSCAASGFTFSEYVMWWVRQAPGKGLEWVSVISPSGGYTVYADSVKGRFTISRDNSKNTLYLQMNSLRAEDTAVYYCARDRGGATTLDYWGQGTLVTVSS VL: DIQMTQSPSTLSASVGDRVTITCRASQTISSWLAWYQQKPGKAPKLMIYKAASLGSEVPSRFSGSGSGTEFTLTISSLQPEDFSTYYCQQYKTYPVTFGQGTRLEIK | 1 score 0-5 |
| M0063-F02 IgG (antibody, V domains shown, IgG form of the Fab; Variable domains as printed for the Fab (LV with its leading Q)) VH: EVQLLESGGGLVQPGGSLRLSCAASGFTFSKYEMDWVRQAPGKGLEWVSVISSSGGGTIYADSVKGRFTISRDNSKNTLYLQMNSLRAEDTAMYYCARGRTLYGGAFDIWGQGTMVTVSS VL: DIQMTQSPSSLSASVGDRVTITCRASQPINTYLNWYQQRPGKAPRILIYTSSTLQSGVPSRFSGSGSGTDFTLTISSVQPEDFATYYCQQSYSFPLTFGGGTKVEIK | 0 score 0-5 |
| M0070-H08 IgG (antibody, V domains shown) VH: EVQLLESGGGLVQPGGSLRLSCAASGFTFSRYWMIWVRQAPGKGLEWVSSIRSSGETKYADSVKGRFTISRDNSKNTLYLQMNSLRAEDTAVYYCARGPLSDYYDSSGYYFDAFDIWGQGTMVTVSS VL: DIQMTQSPSSLSASAGDRVTITCRASQSISSYLNWYQQKPGKAPNLLIYTTSNLQGGVPSRFSGSGSGTDFTLTISSLQPEDFATYYCQQGYSFPLTFGGGTKVEIK | 2 score 0-5 |
| M0072-C06 IgG (antibody, V domains shown) VH: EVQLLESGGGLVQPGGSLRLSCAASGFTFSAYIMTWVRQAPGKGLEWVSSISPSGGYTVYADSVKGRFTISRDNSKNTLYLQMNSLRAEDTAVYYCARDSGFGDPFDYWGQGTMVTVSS VL: DIQMTQSPSSLSASVGDRVTITCRASQSIRNYLNWYQQKPGKAPKLLIYAASKLEDGVPSRFSGSGTGTDFTLTIRSLQPEDFASYFCQQSYSSPGITFGPGTKVEIK | 2 score 0-5 |
